Data provenance is the supplement of paper PMC10567573.

- METHOD: protein stability index of a GFP-peptide fusion (GPS, HEK-293T) (PSI 1-6); higher = more stable;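 also: 24-mer peptide tiles fused after GFP, lentivirally expressed, FACS-sorted into six equal bins by GFP/DsRed ratio, decoded by Illumina sequencing, PSI is the read-weighted mean bin number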
- CONDITION_CONTEXT: treatment: MLN4924 1 uM, 8 h; c terminus: a fixed tail appended
Please use t whenever protein stability index is not below 3, and f whenever it is.

- SEQUENCE_ENTRY: "FFLRGRLDQLLRHVMNPLETLSIT [PRAME]"
  LABEL: "f"
- SEQUENCE_ENTRY: "FMPQGAGGHTREARIQTLEPDNWM [RSAD1]"
  LABEL: "t"
- SEQUENCE_ENTRY: "MESSKPGPVQVVLVQKDQHSFELD [ATL3]"
  LABEL: "t"
- SEQUENCE_ENTRY: "KLRHDLKKTSITQQPSKHRTDEEL [PLK2]"
  LABEL: "t"
- SEQUENCE_ENTRY: "GKEDSTLQLLREENRALQQLLEQK [CBY2]"
  LABEL: "t"
- SEQUENCE_ENTRY: "GHAQDLMDGLPPGDSNQLAWFDTD [CTNNB1]"
  LABEL: "t"
- SEQUENCE_ENTRY: "QLVSFQKLKLTNNHLDPFGHIILN [TBX5]"
  LABEL: "f"
